# Test system: OVCAR-8 ovarian
# experimental_details: NCI-60 one-dose screen, 48 h (100 = growth as untreated, 0 = no growth, -100 = all killed)
# test_parameters: 10 µM unless noted
This is part of a sample that, as a whole, favours compounds with a hit. Of some 83,000 tested, about 20% had one in any assay.
metric_name: growth (%)

1) N#Cc1c(NCc2ccccc2)n[nH]c1Nc1ccccc1 :: 61.1
2) CC1(C)CC[C@]2(C(=O)Nc3ccc(Br)cc3)CC[C@]3(C)C(=CCC4[C@@]5(C)C[C@@H](O)[C@H](O)[C@@](C)(CO)C5CC[C@]43C)C2C1 (some centres undefined) :: 25.6
3) COc1c(F)ccc(C(=O)Nc2ccc3nc(NC(=O)C4CCCN(S(=O)(=O)C5CC5)C4)sc3c2)c1F (centres undefined) :: 36.4
4) Nc1nc(-c2ccccc2)c(N=Nc2ccc(Cl)cc2[N+](=O)[O-])s1 :: 91.3

###

# System: UACC-257 melanoma
# experimental_details: NCI-60 one-dose screen, 48 h (100 = growth as untreated, 0 = no growth, -100 = all killed)
# test_parameters: 10 µM unless noted
About 83,000 compounds went through this panel and 20% of them were active in at least one assay; those are over-represented in the sample as a whole.
metric_name: growth (%)

1) COc1ccc2oc(=O)c(C3(C)NC(=O)c4c(/C=C/C(=O)OC(C)(C)C)cccc4N3)cc2c1 (stereo not given) :: 32.6
2) CCCS(=O)(=O)N1CCCC(C(=O)Nc2nc3ccc(NC(=O)c4ccc(F)c(OC)c4F)cc3s2)C1 (stereo not given) :: 25.2
3) CC(C)(C)OC(=O)/C=C/c1cccc2c1C(=O)NC(C)(c1cc3cc(Cl)ccc3oc1=O)N2 (stereo not given) :: 41.7
4) COc1ccc(C(=O)/C=C/c2ccc3ccccc3c2)cc1S(N)(=O)=O :: -48.4
5) CCN(CC)c1ccc(/C=N/Nc2nc(-c3ccc(C)cc3)cs2)c(O)c1 :: 95.2

###

# System: SF-539 CNS
# experimental_details: NCI-60 one-dose screen, 48 h (100 = growth as untreated, 0 = no growth, -100 = all killed)
# test_parameters: 10 µM unless noted
This is part of a sample that, as a whole, favours compounds with a hit. Of some 83,000 tested, about 20% had one in any assay. Activity calls are given as the source filed them. Rule for the calls: active = growth percent below 10; inactive = the rest.
Each entry below lists one item and its recorded growth value.
metric_name: growth

1. C=C1CCC2C3(C)COC(c4ccc(F)cc4)OC3CCC2(C)C1CC(O)C1=CCOC1=O (centres undefined) :: 56.3% (inactive)
2. C=C1CCC2C3(C)COC(c4cc(F)cc(F)c4)OC3CCC2(C)C1CC(O)C1=CCOC1=O (centres undefined) :: 79.6% (inactive)
3. COC(=O)C[C@](O)(CCCC(C)(C)O)C(=O)O[C@H]1C(OC)=C[C@@]23CCCN2CCc2cc4c(cc2[C@@H]13)OCO4 :: -50.8% (active)
4. O=C(c1ccccc1)C(c1c[nH]c2ccccc12)c1c[nH]c2ccccc12 :: 85.4% (inactive)
5. O=C(O)Cn1c(O)c(/C=C2/C=c3cc4c(cc3=NC2=O)OCCO4)sc1=S :: 107% (inactive)
6. Cc1ccc(-c2nnc3ccc(N/N=C/c4ccccc4)nn23)cc1 :: 80.8% (inactive)
7. COc1ccc(C(=O)/C=C/c2cccnc2)cc1S(N)(=O)=O :: 3.62% (active)
8. COc1ccc(-c2ccc(SCC(=O)Nc3ccc(S(N)(=O)=O)cc3Br)nn2)cc1 :: 42.9% (inactive)
9. C#CCOc1ccc(/C=N/Nc2nc(-c3ccc(F)cc3)cs2)cc1OC :: 70.6% (inactive)

###

# Test system: SNB-75 CNS
# experimental_details: NCI-60 one-dose screen, 48 h
# test_parameters: 10 µM unless noted
# Protocol: Growth inhibition of the SNB-75 human tumor cell line is measured as a screen for anti-cancer activity. Cells are grown in 96 well plates and exposed to the test compound for 48 hours. Compounds are tested at a single concentration, which is 10^-5 M for most compounds. The reported endpoint is percent growth (GI% or GIPRCNT), where numbers from 0 - 100% represent growth inhibition, and numbers from -100% - 0 represent cell death. For example, a value of 40 represents 60% growth inhibition. […]
About 83,000 compounds went through this panel and 20% of them were active in at least one assay; those are over-represented in the sample as a whole. Active and inactive are the calls of the source. Rule for the calls: active = growth percent below 10; inactive = the rest.
Classes used: active, inactive

1) C#C[C@]1(O)CC[C@H]2[C@@H]3CC=C4c5sc(-c6ccc([N+](=O)[O-])cc6)nc5CC[C@]4(C)[C@H]3CC[C@@]21C :: inactive
2) CCCCc1c(Nn2cnnn2)no[n+]1[O-] :: inactive
3) COc1ccc(-c2c(Nn3cnnn3)no[n+]2[O-])cc1 :: inactive
4) c1ccc(-c2csc(Nc3cccc(Nc4nc(-c5ccccc5)cs4)c3)n2)cc1 :: inactive
5) COc1c(F)ccc(C(=O)Nc2ccc3nc(NC(=O)C4CCCN(S(=O)(=O)c5ccc(Br)s5)C4)sc3c2)c1F (stereo not drawn) :: inactive
6) CC(=O)Oc1ccc(/C=C/C(=O)N[C@@H](Cc2ccccc2)C(O)C(=O)NCc2ccccc2)cc1OC(C)=O (stereo partly drawn) :: inactive
7) O=C1Nc2cc(Cl)ccc2/C1=C/c1cccc(OCc2ccccn2)c1 :: inactive
8) CC1(C)CC[C@]2(C(=O)Nc3ccc(F)cc3)CC[C@]3(C)C(=CCC4[C@@]5(C)C[C@@H](O)[C@H](O)[C@@](C)(CO)C5CC[C@]43C)C2C1 (stereo partly drawn) :: inactive
9) O=C(Nc1ccccc1)N1CCN(c2cc(-c3cn(-c4ccccc4)nc3-c3cccc(O)c3)ccn2)CC1 :: inactive
10) Clc1cccc(Cl)c1/C=C/c1cc(/C=C/c2ccc(Br)cc2)c2ccccc2n1 :: inactive
11) CC1=C(C(=O)OCc2ccccc2)C(c2ccc(-n3cncn3)cc2)n2c(nc3ccccc32)N1 (stereo not drawn) :: inactive
12) O=C(/C=C/c1ccc(-c2ccccc2)cc1)c1nc2ccccc2n1Cc1ccc(F)cc1 :: inactive
13) C[C@H]1CN(C(=O)c2ccc3c(NNC(=O)c4ccncn4)nc4cc(F)c(F)cc4n23)CCN1 :: inactive
14) NS(=O)(=O)c1ccc(-n2cc(-c3cccc(NC(=O)c4cc(C(F)(F)F)cc(C(F)(F)F)c4)c3)nn2)cc1 :: inactive
15) C#CCOc1cc(N(CC)CC)ccc1C(C(=O)NC(C)(C)C)N(C(=O)C1CCc2cc(F)ccc2O1)c1ccc(F)cc1 (stereo not drawn) :: inactive
16) CCN(CC)C(=O)N/C(N)=N/c1nc2ccccc2s1 :: inactive
17) COc1cc2oc(-c3cccc(C(=O)Nc4cccc([N+](=O)[O-])c4)c3)cc(=O)c2c(OC)c1OC :: active
18) CN(C)c1ccnc(CNCCSC2(c3ccc(C(F)(F)F)cc3)c3ccccc3CCc3ccccc32)c1 :: active

###

# System: NCI/ADR-RES ovarian
# experimental_details: NCI-60 one-dose screen, 48 h
# test_parameters: 10 µM unless noted
This is part of a sample that, as a whole, favours compounds with a hit. Of some 83,000 tested, about 20% had one in any assay. The source made the active and inactive calls. Rule for the calls: active = growth percent below 10; inactive = the rest.
Classes used: T = active, F = inactive

1) CN1CCN(Cc2ccc(C(=O)Nc3cccc(C#Cc4cccc5[nH]nc(N)c45)c3)cc2C(F)(F)F)CC1 :: T
2) Cc1cccc(-c2nc(Nc3cccc(S(N)(=O)=O)c3)c3ccccc3n2)c1 :: F
3) Cc1nc(Nc2ncc(C(=O)Nc3c(C)cccc3Cl)s2)cc(N2CCN(CCCNC(=O)COc3ccc(C4CCC(=O)NC4=O)cc3)CC2)n1 (centres undefined) :: F
4) Cn1cc(-c2nc(N)nnc2-c2c[nH]c3ccc(F)cc23)c2cccnc21 :: F
5) N#Cc1c(-c2ccccc2Cl)cc(-c2ccc3ccccc3c2)[nH]c1=O :: F
6) COc1cc2c(c(OC)c1OC)C(=O)CC(c1cccc(NC(=O)c3cccc([N+](=O)[O-])c3)c1)O2 (centres undefined) :: F
7) Cc1ccc(-c2nnc3ccc(N/N=C/c4ccccc4)nn23)cc1 :: F
8) CC12CC[C@@H]3[C@]4(C)COC(c5cn[nH]c5-c5cccc(Br)c5)O[C@@H]4CC[C@@]3(C)[C@@H]1CC(C1=CCOC1=O)O2 (some centres undefined) :: F
9) COc1ccc(C(=O)Nc2n[nH]c(Nc3ccccc3)c2C#N)cc1 :: F
10) O=C1C(=Nc2ccc(F)c(Cl)c2)c2cccc3cccc1c23 :: F
11) Cn1cc(-c2nnc(N)nc2-c2c[nH]c3ccccc23)c2cccnc21 :: F
12) CC(=O)Nc1ccc(C(=O)NC(=S)Nc2ccc(S(N)(=O)=O)cc2)cc1 :: F
13) CC1=C(C(=O)c2ccccc2)C(c2ccc(-n3cncn3)cc2)n2c(nc3ccccc32)N1 (centres undefined) :: F
14) Cc1ccc(Cc2cnc(NC(=O)c3ccc(/C=C4\SC(=S)N(C)C4=O)cc3)s2)cc1 :: T
15) CCCCSc1nc(NCCc2c[nH]c3ccccc23)c(C#N)c(-c2ccc(OC)cc2)n1 :: F
16) COc1cc2c(c(OC)c1OC)C(=O)CC(c1cccc(NC(=O)c3cc(NC(=O)[C@@H](N)CO)ccc3C)c1)O2 (some centres undefined) :: F
17) C=C1CCC2C3(C)COC(c4ccccc4)OC3CCC2(C)C1CC(Sc1ccccc1)C1=CCOC1=O (centres undefined) :: T
18) Cn1cc(-c2nnc(N)nc2-c2c[nH]c3ccc(Br)cc23)c2cc(Br)cnc21 :: F
19) O=C(Cn1c(/C=C/c2ccccc2)nc2ccccc2c1=O)Nc1ccccc1 :: F
